- Tested on: renal carcinoma cell line Caki-2
- ASSAY TEXT: Cell viability (sulforhodamine B), Caki-2
- Format: cell-based
- ASSAY SETUP: Homo sapiens, Table 5
pIC50: −log10 of the molar value.
Item-by-item account of pIC50

{"columns": ["COMPOUND", "pIC50"],
 "data": [
  ["COc1cccc2c1Oc1nc(-c3ccc(F)cc3)[nH]c1C2C1c2cccc(OC)c2Oc2nc(-c3ccc(F)cc3)[nH]c21 (centres unmarked)", 6.75],
  ["COc1cccc2c1Oc1nc(-c3ccccc3F)[nH]c1C2", 6.36],
  ["COc1cccc2c1Oc1nc(-c3cccc(O)c3)[nH]c1C2", 5.63],
  ["COc1ccccc1-c1nc2c([nH]1)Cc1cccc(OC)c1O2", 5.40],
  ["COc1cccc2c1Oc1nc(-c3ccccc3F)[nH]c1C2C1c2cccc(OC)c2Oc2nc(-c3ccccc3F)[nH]c21 (centres unmarked)", 6.96]
]}

###

- ASSAY TEXT: Highest soluble concentration in C. elegans assay
- Assay type: physicochemical
- ASSAY SETUP: C. elegans liquid culture medium (S-medium) with 1% DMSO, 20 °C, aqueous buffer, kinetic from dmso stock, read-out: highest soluble concentration possible
READOUT: solubility (µM)

{"columns": ["MOLECULE", "RESULT VALUE"],
 "data": [
  ["COc1cccc2c1Oc1nc(-c3ccccc3F)[nH]c1C2C1c2cccc(OC)c2Oc2nc(-c3ccccc3F)[nH]c21 (stereo not shown)", 75]
]}

###

- Tested on: cediranib-resistant Caki-2 cell line
- ASSAY TEXT: Cell viability, cediranib-resistant Caki-2
- Assay type: cell-based
Parameter: Selectivity Index (vs HK2) Caki-2 Resistant. Scope: all listed entries.
READOUT: Selectivity Index (vs HK2) Caki-2 Resistant

{"columns": ["MOLECULE", "RESULT VALUE"],
 "data": [
  ["COc1cccc2c1Oc1nc(-c3ccc(Br)cc3)[nH]c1C2 [MC408]", 123.79],
  ["COc1cccc2c1Oc1nc(-c3ccc(O)cc3)[nH]c1C2 [MC413]", 29.6],
  ["COc1ccc(-c2nc3c([nH]2)Cc2cccc(OC)c2O3)c(Br)c1O [MC416]", 1.97],
  ["COc1ccccc1-c1nc2c([nH]1)Cc1cccc(OC)c1O2 [MC411]", 1.92],
  ["COc1cccc2c1Oc1nc(-c3cc(F)cc(F)c3O)[nH]c1C2 [MC410]", 2.60],
  ["COc1cccc2c1Oc1nc(-c3ccc(F)cc3)[nH]c1C2 [MC409]", 9.56],
  ["CCOc1ccc(-c2nc3c([nH]2)Cc2cccc(OC)c2O3)cc1 [MC415]", 64.5],
  ["COc1cccc2c1Oc1nc(-c3ccccc3)[nH]c1C2 [MC350]", 32.28],
  ["COc1cccc2c1Oc1nc(-c3ccc(Br)cc3)[nH]c1C2C1c2cccc(OC)c2Oc2nc(-c3ccc(Br)cc3)[nH]c21 (stereo not drawn) [MC421]", 123.50]
]}

###

- Tested on: acute leukemia cell line KG-1
- ASSAY TEXT: Cell viability MTS assay, KG-1
- Type: cell-based
- ASSAY SETUP: Homo sapiens, 72 hours
- Protocol: In an embodiment, the antiproliferative activity of compounds MC408, MC409, MC421 and MC406 was further determined against glioma cell lines (U87, GAMG and GL18) and acute leukemia cell lines (HL-60, KG-1 and Jurkat). […] Cell viability was determined using the MTS assay, after exposure of the cells to the respective compounds for 72 hours at appropriate concentration ranges to determine the respective IC50 values. […]
Let's look at some molecules and their measured IC50.

{"columns": ["MOLECULE", "IC50 (µM)"],
 "data": [
  ["COc1cccc2c1Oc1nc(-c3ccc(F)cc3)[nH]c1C2 [MC409]", 1.02],
  ["COc1cccc2c1Oc1nc(-c3ccc(Br)cc3)[nH]c1C2 [MC408]", 0.64],
  ["COc1cccc2c1Oc1nc(-c3ccc(Br)cc3)[nH]c1C2C1c2cccc(OC)c2Oc2nc(-c3ccc(Br)cc3)[nH]c21 (stereo not shown) [MC421]", 0.93],
  ["COc1cccc2c1Oc1nc(-c3ccc(F)cc3)[nH]c1C2C1c2cccc(OC)c2Oc2nc(-c3ccc(F)cc3)[nH]c21 (stereo not shown) [MC406]", 1.01]
]}

Each recorded value in this set is attributed to patent US12391701B2.
